# EXPERIMENTAL TARGET: Non-receptor tyrosine-protein kinase TYK2 (Homo sapiens, UniProt P29597)
# Sequence (P29597 whole entry, the tested form may be a part): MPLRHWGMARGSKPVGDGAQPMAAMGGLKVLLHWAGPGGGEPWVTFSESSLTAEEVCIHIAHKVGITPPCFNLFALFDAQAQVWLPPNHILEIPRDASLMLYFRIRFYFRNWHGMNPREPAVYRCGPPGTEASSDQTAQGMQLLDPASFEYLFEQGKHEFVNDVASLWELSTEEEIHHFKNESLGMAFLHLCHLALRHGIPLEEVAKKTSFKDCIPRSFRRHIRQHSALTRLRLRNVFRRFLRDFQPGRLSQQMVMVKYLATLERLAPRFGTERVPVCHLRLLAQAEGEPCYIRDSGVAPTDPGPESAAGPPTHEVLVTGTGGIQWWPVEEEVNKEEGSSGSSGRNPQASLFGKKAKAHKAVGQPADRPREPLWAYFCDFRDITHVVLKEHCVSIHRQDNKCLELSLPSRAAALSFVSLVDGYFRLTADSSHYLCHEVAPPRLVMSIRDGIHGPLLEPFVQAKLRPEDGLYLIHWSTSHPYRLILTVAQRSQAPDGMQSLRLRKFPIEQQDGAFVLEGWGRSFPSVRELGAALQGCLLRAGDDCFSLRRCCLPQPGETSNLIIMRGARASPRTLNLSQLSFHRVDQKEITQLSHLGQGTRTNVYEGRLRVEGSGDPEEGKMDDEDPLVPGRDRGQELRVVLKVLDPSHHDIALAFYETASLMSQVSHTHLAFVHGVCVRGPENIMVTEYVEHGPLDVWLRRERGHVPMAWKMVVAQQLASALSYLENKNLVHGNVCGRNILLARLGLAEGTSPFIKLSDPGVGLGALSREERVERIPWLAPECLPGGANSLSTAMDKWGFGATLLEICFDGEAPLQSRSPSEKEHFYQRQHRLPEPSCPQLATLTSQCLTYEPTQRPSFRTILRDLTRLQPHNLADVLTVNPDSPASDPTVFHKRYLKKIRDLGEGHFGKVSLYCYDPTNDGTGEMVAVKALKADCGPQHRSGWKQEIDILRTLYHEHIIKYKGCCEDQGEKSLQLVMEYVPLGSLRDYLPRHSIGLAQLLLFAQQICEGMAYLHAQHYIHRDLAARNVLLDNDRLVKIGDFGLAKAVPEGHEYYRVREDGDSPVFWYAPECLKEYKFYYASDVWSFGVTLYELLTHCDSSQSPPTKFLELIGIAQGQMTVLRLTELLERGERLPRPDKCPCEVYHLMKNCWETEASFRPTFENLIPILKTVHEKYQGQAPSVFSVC
# ASSAY NOTES: TYK2 JH2 Domain Binding Assay: Binding constants for compounds of the present invention against the JH2 domain were determined by the following protocol for a KINOMEscan® assay (DiscoveRx). A fusion protein of a partial length construct of human TYK2 (JH2domain-pseudokinase) (amino acids G556 to D888 based on reference sequence NP_003322.3) and the DNA binding domain of NFkB was expressed in transiently transfected HEK293 cells. From these HEK 293 cells, extracts were prepared in M-PER extraction buffer (Pierce) in the presence of Protease Inhibitor Cocktail Complete (Roche) and Phosphatase Inhibitor Cocktail Set II (Merck) per manufacturers' instructions. The TYK2 (JH2domain-pseudokinase) fusion protein was labeled with a chimeric double-stranded DNA tag containing the NFkB binding site (5′-GGGAATTCCC-3′ (SEQ ID NO: 1)) fused to an amplicon for qPCR readout, which was added directly to the expression extract (the final concentration of DNA-tag in the binding reaction is 0.1 nM).Streptavidin-coated magnetic beads (Dynal M280) were treated with a biotinylated small molecule ligand for 30 minutes at room temperature to generate affinity resins the binding assays. The liganded beads were blocked with excess biotin and washed with blocking buffer (SeaBlock (Pierce), 1% BSA, 0.05% Tween 20, 1 mM DTT) to remove unbound ligand and to reduce nonspecific binding.The binding reaction was assembled by combining 16 μl of DNA-tagged kinase extract, 3.8 μl liganded affinity beads, and 0.18 μl test compound (PBS/0.05% Tween 20/10 mM DTT/0.1% BSA/2 μg/ml sonicated salmon sperm DNA)]. Extracts were used directly in binding assays without any enzyme purification steps at a ≥10,000-fold overall stock dilution (final DNA-tagged enzyme concentration <0.1 nM). Extracts were loaded with DNA-tag and diluted into the binding reaction in a two step process. First extracts were diluted 1:100 in 1× binding buffer (PBS/0.05% Tween 20/10 mM DTT/0.1% BSA/2 μg/ml sonicated salmon sperm DNA) containing 10 nM DNA-tag. This dilution was allowed to equilibrate at room temperature for 15 minutes and then subsequently diluted 1:100 in 1× binding buffer. Test compounds were prepared as 111× stocks in 100% DMSO. Kds were determined using an 11-point 3-fold compound dilution series with three DMSO control points. All compounds for Kd measurements are distributed by acoustic transfer (non-contact dispensing) in 100% DMSO. The compounds were then diluted directly into the assays such that the final concentration of DMSO was 0.9%. All reactions performed in polypropylene 384-well plates. Each was a final volume of 0.02 mL. Assays were incubated with shaking for 1 hour at room temperature. Then the beads were pelleted and washed with wash buffer (1×PBS, 0.05% Tween 20) to remove displaced kinase and test compound. The washed based were re-suspended in elution buffer (1×PBS, 0.05% Tween 20, 0.5 μM non-biotinylated affinity ligand) and incubated at room temperature with shaking for 30 minutes. The kinase concentration in the eluates was measured by qPCR. qPCR reactions were assembled by adding 2.5 μL of kinase eluate to 7.5 μL of qPCR master mix containing 0.15 μM amplicon primers and 0.15 μM amplicon probe. The qPCR protocol consisted of a 10 minute hot start at 95° C., followed by 35 cycles of 95° C. for 15 seconds, 60° C. for 1 minute.Test compounds were prepared as 111× stocks in 100% DMSO. Kds were determined using an 11-point 3-fold compound dilution series with three DMSO control points. All compounds for Kd measurements are distributed by acoustic transfer (non-contact dispensing) in 100% DMSO. The compounds were then diluted directly into the assays such that the final concentration of DMSO was 0.9%. The Kds were determined using a compound top concentration of 30,000 nM. Kd measurements were performed in duplicate.
pKd: −log10 of the molar value.
ASSAY ENDPOINT: pKd

Quick one: pKd of `COc1cc(Cl)ccc1Nc1cc(Nc2cc(C)ccn2)nc2[nH]n(C)c(=O)c12` ?
< 8.00

// data source = ChEMBL document CHEMBL5727115
